# TARGET OF ASSAY: T1, VEGFR-2-Fc (UniProt P35968 20-322)
# T1 construct: domain: first 3 Ig domains; conditioned supernatant of 293T cells; also called VEGFR-2-Fc fusion protein; not shown: Fc fragment of the pIg vector
# T1 sequence (P35968 20-322): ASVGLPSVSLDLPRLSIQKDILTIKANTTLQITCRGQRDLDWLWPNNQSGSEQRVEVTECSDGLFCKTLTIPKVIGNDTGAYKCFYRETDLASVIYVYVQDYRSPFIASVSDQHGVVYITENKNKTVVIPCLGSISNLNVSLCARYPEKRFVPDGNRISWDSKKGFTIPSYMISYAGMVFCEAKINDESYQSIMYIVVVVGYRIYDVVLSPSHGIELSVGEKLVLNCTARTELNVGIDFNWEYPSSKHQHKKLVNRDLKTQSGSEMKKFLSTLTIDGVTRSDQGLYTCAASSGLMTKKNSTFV
# TEST: receptor-Fc IP
# Description: The binding assay procedure was identical to the immunoprecipitation using pentahistidine antibody described in Example 2, apart from the composition of the immunoprecipitation (IP) mixes. […]
EXPERIMENTAL ENDPOINT: binding result

Reference set (7 entries):
>  <BINDER>
73-7 (ligand) GQNHHEVVKSIDNEWRKTQCMPREVCIDVGKEYPDEIEYIFKPPCVSVYRCGGCCNSEGLQCVPTEESNITMQIMRIKPHQGQHIGEMSFANHTSCRCMSKLD

>  <OBSERVED MEASUREMENT>
binds

$$$$
>  <BINDER>
44-4 (ligand) AHYNTEILKFMDVYQRSYCHPREVCIDVGKEFGVATNTFFKPSCVPLMRCGGCCNSEGLQCMNTSTSYLSKTLFEIKPHQGQHIGEMSFLQHNKCECRPKKD

>  <OBSERVED MEASUREMENT>
no binding

$$$$
>  <BINDER>
24-5 (ligand) AHYNTEILKSIDNEWRKTQCMPREVCIDVGKEFGVATNTFFKPSCVPLMRCGGCCNDEGLECVPTEESNITMQIMRIKPHQGQHIGEMSFANHTSCRCMSKLD

>  <OBSERVED MEASUREMENT>
no binding

$$$$
>  <BINDER>
74-9 (ligand) GQNHHEVVKSIDNEWRKTQCMPREVCIDVGKEFGVATNTFFKPSCVPLMRCGGCCNDEGLECVPTEESNITMQIMRITVPLSQGPKPVTISFLQHNKCECRPKKD

>  <OBSERVED MEASUREMENT>
no binding

$$$$
>  <BINDER>
33-9 (ligand) GQNHHEVVKSIDNEWRKTQCMPIETLVDIFQEYPDEIEYIFKPPCVSVYRCGGCCNDEGLECVPTEESNITMQIMRITVPLSQGPKPVTISFLQHNKCECRPKKD

>  <OBSERVED MEASUREMENT>
binds

$$$$
>  <BINDER>
13-6 (ligand) GQNHHEVVKFMDVYQRSYCHPIETLVDIFQEYPDEIEYIFKPPCVSVYRCGGCCNDEGLECMNTSTSYLSKTLFEIKPHQGQHIGEMSFANHTSCRCMSKLD

>  <OBSERVED MEASUREMENT>
no binding

$$$$
>  <BINDER>
21-16 (ligand) AHYNTEILKSIDNEWRKTQCMPREVCIDVGKEYPDEIEYIFKPSCVPLMRCGGCCNSEGLQCMNTSTSYLSKTLFEITVPLSQGPKPVTISFANHTSCRCMSKLD

>  <OBSERVED MEASUREMENT>
no binding

$$$$

Continue with the binder presented below.
Which binding result is reported for this binder? 22-14 (ligand) AHYNTEILKSIDNEWRKTQCMPREVCIDVGKEFGVATNTFFKPPCVSVYRCGGCCNDEGLECMNTSTSYLSKTLFEITVPLSQGPKPVTISFANHTSCRCMSKLD
binds
